Tested on: Pseudotyped HCV GT1a particles (HCVpp), entry into Huh7-high CD81 cells
Assay: microbe, parasite or virus in culture
Format: cell-based, HCV GT1a H77 strain
Conditions: Hepatitis C virus, 72 h, read-out: HCVpp GT-1a (EC50, μM)
Returns: string. Value is fulfilled if measured EC50 is below 0.01 µM, and not fulfilled if it is greater than or equal to it.

Please review the entries below; each comes with its answer.
Nc1nc(Nc2ccc(-c3ccc(NC(=O)CCCC[C@@H]4SC[C@@H]5NC(=O)N[C@@H]54)cc3)cc2)n[nH]1 (stereo in doubt): not fulfilled
CS(=O)(=O)NCc1ccc(-c2c(Cl)cc(Nc3n[nH]c(N)n3)cc2Cl)cc1: fulfilled
N#Cc1ccccc1-c1c(Cl)cc(Nc2n[nH]c(N)n2)cc1Cl: not fulfilled

Does this molecule meet the criterion EC50 < 0.01 µM? Nc1nc(Nc2cc(Cl)c(-c3ccc(NC(=O)CN4CCS(=O)(=O)CC4)cc3)c(C(F)(F)F)c2)n[nH]1
not fulfilled

Does this molecule meet the criterion EC50 < 0.01 µM? CS(=O)(=O)c1ccc(-c2c(Cl)cc(Nc3n[nH]c(N)n3)cc2C(F)(F)F)cc1
not fulfilled

Does this molecule meet the criterion EC50 < 0.01 µM? Nc1nc(Nc2ccc(-c3ccc(F)c(F)c3)c(Cl)c2)n[nH]1
not fulfilled

Does this molecule meet the criterion EC50 < 0.01 µM? N#Cc1ccc(-c2c(Cl)cc(Nc3n[nH]c(N)n3)cc2Cl)cc1
not fulfilled

Does this molecule meet the criterion EC50 < 0.01 µM? CS(=O)(=O)c1cccc(-c2c(F)cc(Nc3nc(N)n[nH]3)cc2C(F)(F)F)c1
not fulfilled

Does this molecule meet the criterion EC50 < 0.01 µM? Nc1nc(Nc2ccc(-c3ccc(F)cc3)c(Cl)c2)n[nH]1
not fulfilled

Does this molecule meet the criterion EC50 < 0.01 µM? Nc1nc(Nc2cc(Cl)c(-c3ccc(S(=O)(=O)N4CCCC4)cc3)c(C(F)(F)F)c2)n[nH]1
not fulfilled

Does this molecule meet the criterion EC50 < 0.01 µM? Nc1nc(Nc2cc(Cl)c(-c3ccc(OC(F)(F)F)cc3)c(Cl)c2)n[nH]1
not fulfilled

Does this molecule meet the criterion EC50 < 0.01 µM? CC(C)(C)OC(=O)N1CCC(S(=O)(=O)c2ccc(-c3c(Cl)cc(Nc4n[nH]c(N)n4)cc3C(F)(F)F)cc2)CC1
not fulfilled

Does this molecule meet the criterion EC50 < 0.01 µM? CN(C)S(=O)(=O)c1ccc(-c2c(F)cc(Nc3n[nH]c(N)n3)cc2Cl)cc1
not fulfilled

Does this molecule meet the criterion EC50 < 0.01 µM? CS(=O)(=O)NCc1ccc(-c2c(Cl)cc(Nc3n[nH]c(N)n3)cc2C(F)(F)F)cc1
not fulfilled
